- assayRemarks: clinical
- assayContext: human, in vivo, sorafenib AUC0–8 in non-responders
readoutLabel: AUC(0-t)
A bare number is not enough; add the unit after it.

Documented AUC(0-t) of CNC(=O)c1cc(Oc2ccc(NC(=O)Nc3ccc(Cl)c(C(F)(F)F)c3)cc2)ccn1 : 17300 ng·h/mL

----------
- assayRemarks: clinical
- assayContext: human, in vivo, po, 400 mg, Cmax mean (SD)
readoutLabel: Cmax
In your response, the unit should come after the numeric value.

// Cmax value for CNC(=O)c1cc(Oc2ccc(NC(=O)Nc3ccc(Cl)c(C(F)(F)F)c3)cc2)ccn1 : 3820 ng/mL

----------
- assayRemarks: Pharmacokinetic analyses of paclitaxel and sorafenib in plasma
- assayContext: human, iv, Cmax mean (SD), paclitaxel 80 mg/m^2 IV, C1D15 (with sorafenib), cohorts 2/2 expansion, sorafenib 200 mg BID 7/7, n=13
readoutLabel: Cmax (ng/mL)
Give your result in ng/mL as a bare value.

The reported value for CC(=O)O[C@H]1C(=O)[C@@]2(C)[C@H]([C@H](OC(=O)c3ccccc3)[C@]3(O)C[C@H](OC(=O)[C@H](O)[C@@H](NC(=O)c4ccccc4)c4ccccc4)C(C)=C1C3(C)C)[C@]1(OC(C)=O)CO[C@@H]1C[C@@H]2O in terms of Cmax is 3480

----------
- assayRemarks: clinical
- assayContext: human, in vivo, sorafenib AUC0–8 in responders
readoutLabel: AUC(0-t) (ng·h/mL)
Give the quantity in ng·h/mL, number only.

Recorded AUC(0-t) (compound CNC(=O)c1cc(Oc2ccc(NC(=O)Nc3ccc(Cl)c(C(F)(F)F)c3)cc2)ccn1 ): 38100

----------
- assayRemarks: clinical
- assayContext: human, in vivo, po, 200 mg, Cmax mean (SD)
readoutLabel: Cmax (µg/mL)
Numbers only here, please. The scale is µg/mL.

Short answer for CNC(=O)c1cc(Oc2ccc(NC(=O)Nc3ccc(Cl)c(C(F)(F)F)c3)cc2)ccn1 [sorafenib] : Cmax was 2.75

----------
- assayRemarks: clinical
- assayContext: human, in vivo, po, t1/2 mean (SD)
readoutLabel: half-life (h)
Give the quantity in h, number only.

Form: compound = CNC(=O)c1cc(Oc2ccc(NC(=O)Nc3ccc(Cl)c(C(F)(F)F)c3)cc2)ccn1 ; half-life = 4

----------
- assayRemarks: Pharmacokinetic analyses of paclitaxel and sorafenib in plasma
- assayContext: human, iv, Cmax mean (SD), paclitaxel 80 mg/m^2 IV, C1D15 (with sorafenib), cohort 1, sorafenib 200 mg BID 5/7, n=6
readoutLabel: Cmax (ng/mL)
Reply numerically in ng/mL, unit not repeated.

According to the records, this molecule CC(=O)O[C@H]1C(=O)[C@@]2(C)[C@H]([C@H](OC(=O)c3ccccc3)[C@]3(O)C[C@H](OC(=O)[C@H](O)[C@@H](NC(=O)c4ccccc4)c4ccccc4)C(C)=C1C3(C)C)[C@]1(OC(C)=O)CO[C@@H]1C[C@@H]2O displays Cmax of 4350

----------
- assayRemarks: clinical
- assayContext: human, in vivo, po, 400 mg, AUC0–8 mean (SD)
readoutLabel: AUC(0-t)

Sure, the documented AUC(0-t) for CNC(=O)c1cc(Oc2ccc(NC(=O)Nc3ccc(Cl)c(C(F)(F)F)c3)cc2)ccn1 is 23000 ng·h/mL
